Recorded values, source PubChem BioAssay.

- STUDY_SYSTEM: Dihydroorotate dehydrogenase (quinone), mitochondrial (Plasmodium falciparum (isolate 3D7)) (UniProt Q08210)
- Sequence (Q08210 whole entry, looked up): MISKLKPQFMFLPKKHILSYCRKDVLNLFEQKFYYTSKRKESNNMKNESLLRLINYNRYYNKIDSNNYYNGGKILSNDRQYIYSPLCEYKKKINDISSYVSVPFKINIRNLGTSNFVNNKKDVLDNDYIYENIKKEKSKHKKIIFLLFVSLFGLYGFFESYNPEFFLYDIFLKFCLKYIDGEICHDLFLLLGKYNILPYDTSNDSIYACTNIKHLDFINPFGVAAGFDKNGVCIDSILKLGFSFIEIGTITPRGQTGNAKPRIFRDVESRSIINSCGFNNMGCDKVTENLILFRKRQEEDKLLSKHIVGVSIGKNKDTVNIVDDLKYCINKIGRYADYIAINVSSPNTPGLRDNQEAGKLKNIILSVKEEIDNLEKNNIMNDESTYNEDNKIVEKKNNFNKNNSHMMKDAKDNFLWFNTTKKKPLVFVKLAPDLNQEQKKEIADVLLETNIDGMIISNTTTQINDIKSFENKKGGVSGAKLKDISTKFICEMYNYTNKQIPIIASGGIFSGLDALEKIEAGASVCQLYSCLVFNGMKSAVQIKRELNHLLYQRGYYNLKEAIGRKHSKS
- TEST_METHOD_NOTES: PfDHODH enzyme inhibitors, primary screen, biochemical, C-terminal His tag, absorbance 600 nm (AID 1175);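 also: recombinant parasite enzyme with a five histidine tag at its C terminus; test concentration not given here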
- CONDITION: DCIP absorbance 600 nm, higher = more signal, called active from +8 up or from −8 down
Activity calls are given as the source filed them.
Give composite z-score for every item shown.

Exercise: Need composite z-score of COC(=O)[C@@]1(Cc2ccccc2)[C@@H]2C(=CC(=O)[C@H]2CC(=O)C(=O)N(C)C)CN1C(=O)c1ccccc1 , thanks.
Solution: -0.435 (inactive)

Exercise: Need composite z-score of COCCOC(=O)N1C(=O)[C@@]2(c3cc(C#CCCO)ccc31)[C@H](c1ccccc1OCCO)N1[C@H](c3ccccc3)[C@H](c3ccccc3)OC(=O)[C@H]1[C@@H]2C(=O)Nc1nc2ccccc2s1 , thanks.
Solution: -0.26 (inactive)

Exercise: Need composite z-score of C=C(COC)/C(=C/C[C@H](OC(C)=O)c1ccc(OCCO)cc1)c1cc(C(=O)OC)ccc1OC , thanks.
Solution: -2.16 (inactive)

Exercise: Need composite z-score of C[N+](C)(C)CCCCCCNC(=O)[C@H]1C[C@H]2C(=O)N[C@@H](Cc3ccccc3)C(=O)N2[C@H]1c1ccc(O)cc1 , thanks.
Solution: -0.673 (inactive)

Exercise: Need composite z-score of [N-]=[N+]=Nc1ccccc1C[C@]1(C(=O)N2CCOCC2)N=C(c2ccc(OCCCO)cc2)O[C@H]1c1ccccc1 , thanks.
Solution: 0.404 (inactive)

Exercise: Need composite z-score of O=C(NCC(F)(F)F)[C@@H]1c2ccccc2C(=O)N(Cc2ccc(OC(F)(F)F)cc2)[C@H]1c1ccc(CO)cc1 , thanks.
Solution: -0.504 (inactive)

Exercise: Need composite z-score of COC(=O)c1c(CC[C@@H](CO)NC(=O)N2CCC[C@H]2Cn2cc(Cc3ccccc3)nn2)oc(C(C)=O)c1C(=O)OC , thanks.
Solution: -0.378 (inactive)

Exercise: Need composite z-score of OCCCC1=CC(c2ccc(CN3CCCC3)cc2)N(Cc2sc3ccccc3c2Cl)CC1 (stereo not given) , thanks.
Solution: 0.721 (inactive)

Exercise: Need composite z-score of NC(=O)NCC#Cc1ccc2c(c1)[C@]1(C(=O)N2)[C@H](C(=O)O)[C@H]2C(=O)O[C@H](c3ccccc3)[C@H](c3ccccc3)N2[C@@H]1c1ccc(OCCO)cc1 , thanks.
Solution: -0.932 (inactive)

Exercise: Need composite z-score of C[C@@H]1NC(=O)[C@@]23C(=O)N[C@@H](Cc4ccccc4)C2[C@H](C)[C@@]2(C)O[C@H]2C3/C=C/C/C=C\CNC(=O)[C@@H]2CCCN2C1=O (stereo not given in full) , thanks.
Solution: -0.972 (inactive)

Exercise: Need composite z-score of C=CCC(OC(C)=O)[C@@H]1[C@@H](N(Cc2ccc(-c3cccc(C(F)(F)F)c3)o2)C(=O)c2ccc(-c3ccccc3)cc2)c2cc(OCCCO)ccc2N1C(=O)c1ccc2ccccc2n1 (stereo not given in full) , thanks.
Solution: -0.32 (inactive)

Exercise: Need composite z-score of CN(C)CCCNC(=O)[C@@]1(C)c2ccccc2C(=O)N(Cc2ccccc2)[C@H]1c1ccc(CO)cc1 , thanks.
Solution: -0.106 (inactive)

Exercise: Need composite z-score of COC(=O)[C@@]1(Cc2ccc(OC)cc2)[C@@H]2C(=CC(=O)[C@H]2CC(=O)C(=O)N(C)C)CN1C(=O)c1ccccc1 , thanks.
Solution: -0.626 (inactive)

Exercise: Need composite z-score of O=c1n(-c2ccccc2)c(=O)n2n1CC(COc1ccccc1)=C([C@H](O)CCc1ccccc1)[C@@H]2CO , thanks.
Solution: -1.09 (inactive)

Exercise: Need composite z-score of C=C[C@@H](OC)[C@H](OC(=O)Nc1ccc(SC)cc1)c1ccc(O)c(F)c1 , thanks.
Solution: 0.592 (inactive)
